The reported numbers originate from ChEMBL document CHEMBL3137667.

- details: human
observationType: Hepatotoxicity (malignant tumour)
Answer with a bare number; do not write a unit.

1. O=C(O)CCc1nc(-c2ccccc2)c(-c2ccccc2)o1; 0
2. Fc1ccc([C@@H]2CCNC[C@H]2COc2ccc3c(c2)OCO3)cc1; 0
3. FC(F)OC(F)C(F)(F)F (centres undefined); 0
4. COc1cc([C@@H]2c3cc4c(cc3[C@@H](O[C@@H]3O[C@@H]5CO[C@@H](c6cccs6)O[C@H]5[C@H](O)[C@H]3O)[C@H]3COC(=O)[C@H]23)OCO4)cc(OC)c1O [TENIPOSIDE]; 0
5. C[C@H](CS)C(=O)N1CCC[C@H]1C(=O)O; 0
6. OCCN1CCN(CC/C=C2/c3ccccc3Sc3ccc(Cl)cc32)CC1; 0
7. CCCCCCCCNC(C)C(O)c1ccc(SC(C)C)cc1 (centres undefined); 0
8. CN(C)CCCN1c2ccccc2Sc2ccccc21; 0

Now, please, on to the next compound.
For reference, reported Hepatotoxicity (malignant tumour) for COc1cc(C)c(/C=C/C(C)=C/C=C/C(C)=C/C(=O)O)c(C)c1C stands at 0

----------
Listed molecules paired with reported Hepatotoxicity (choleostasis)
- details: human
I'd appreciate a reply containing only the number, no unit.

Some entries whose results are on file:
1. O=C(O)c1cccs1 [THIOPHENE CARBOXYLIC ACID]; 0
2. C[C@]12C/C(=C/O)C(=O)C[C@@H]1CC[C@@H]1[C@@H]2CC[C@@]2(C)[C@H]1CC[C@]2(C)O [OXYMETHOLONE]; 3
3. CC(=O)[C@@]1(O)CC[C@H]2[C@@H]3CCC4=CC(=O)CC[C@]4(C)[C@H]3CC[C@@]21C [HYDROXYPROGESTERONE]; 1

Looking up NCC[C@H](O)C(=O)N[C@@H]1C[C@H](N)[C@@H](O[C@H]2O[C@H](CN)CC[C@H]2N)[C@H](O)[C@H]1O[C@H]1O[C@H](CO)[C@@H](O)[C@H](N)[C@H]1O [ARBEKACIN] , I found its Hepatotoxicity (choleostasis) recorded as 0

Input Cc1ncsc1CCCl [CLOMETHIAZOLE] . Output Hepatotoxicity (choleostasis): 1

Documented Hepatotoxicity (choleostasis) of CN(CCOc1ccc(CC2SC(=O)NC2=O)cc1)c1ccccn1 (centres undefined) [ROSIGLITAZONE] : 2

Hepatotoxicity (choleostasis) for NCCNC(=O)c1ccc(Cl)cn1 [LAZABEMIDE] is 0

For reference, reported Hepatotoxicity (choleostasis) for CC(=O)Oc1ccccc1C(=O)O [ASPIRIN] stands at 2

Form: molecule = CC(=O)c1ccc2c(c1)N(CCCN1CCC(CCO)CC1)c1ccccc1S2 [PIPERACETAZINE] ; Hepatotoxicity (choleostasis) = 0

----------
- protocolSummary: Times to onset, minimal and maximal, observed in the indexed observations. [column 'DELAI' in source]
- details: human
observationType: Hepatotoxicity (time to onset)

Would you please look over these solved cases?
1) CCC[C@@H]1C[C@@H](C(=O)N[C@@H]([C@H]2O[C@H](SC)[C@H](O)[C@@H](O)[C@H]2O)[C@H](C)Cl)N(C)C1; 2 days - 17 days
2) COc1ccc2[nH]cc(CCNC(C)=O)c2c1; 3 weeks
3) C[C@@H](c1ncncc1F)[C@](O)(Cn1cncn1)c1ccc(F)cc1F; 1 day - 1 year

Short answer for CN1CCC(=C2c3ccccc3C=Cc3ccccc32)CC1 : Hepatotoxicity (time to onset) was 1 week - 1 month

Data point: C[C@H](CS)C(=O)N1CCC[C@H]1C(=O)O ; Hepatotoxicity (time to onset) = 9 days - 26 months

Per the record, COC(F)(F)C(Cl)Cl has Hepatotoxicity (time to onset) of 1 day - 20 days

Query CCC1(c2ccc(N)cc2)CCC(=O)NC1=O (stereo not given) [AMINOGLUTETHIMIDE] yields Hepatotoxicity (time to onset) of 1 day - 10 weeks

Hepatotoxicity (time to onset) for CN(C)Cc1ccc(CSCCN/C(=C\[N+](=O)[O-])NCc2ccc3c(c2)OCO3)o1 is 15 days - 7 months

// Hepatotoxicity (time to onset) lookup, compound = O=C(CCCN1CCC(O)(c2ccc(Br)cc2)CC1)c1ccc(F)cc1 , result: 2 weeks - 6 weeks

Entry Nc1c(CC(=O)O)cccc1C(=O)c1ccc(Br)cc1 — recorded Hepatotoxicity (time to onset) = 2 weeks - 8 months

Notebook: C[C@H]1CC(=O)C[C@@H]2CC[C@H]3[C@@H]4CC[C@H](O)[C@@]4(C)CC[C@@H]3[C@]21C , Hepatotoxicity (time to onset) read as 2 years

// field: Hepatotoxicity (time to onset); key: CCCCCCCCCCC[C@@H](C[C@@H]1OC(=O)[C@H]1CCCCCC)OC(=O)[C@H](CC(C)C)NC=O ; value = 3 weeks - 1.5 months

Lab book: Hepatotoxicity (time to onset) of CCCCC1=NC2(CCCC2)C(=O)N1Cc1ccc(-c2ccccc2-c2nnn[nH]2)cc1 noted as 5 days - 4 weeks

Documented Hepatotoxicity (time to onset) of NNc1nncc2ccccc12 [HYDRALAZINE] : 2 days - 3 years

// sample O=[N+]([O-])c1cc(Cl)cc(-c2cc(Cl)cc([N+](=O)[O-])c2O)c1O , its Hepatotoxicity (time to onset) was 1 week

Looking up Cc1cc(O)c(C(=O)N[C@@H](C(=O)N[C@@H]2C(=O)N3C(C(=O)O)=C(CSc4nnnn4C)CS[C@H]23)c2ccc(O)cc2)cn1 [CEFPIRAMIDE] , I found its Hepatotoxicity (time to onset) recorded as 1 month

Item: C[C@H](CCc1ccccc1)NC[C@H](O)c1ccc(O)c(C(N)=O)c1 | Hepatotoxicity (time to onset): 2 weeks

In plain terms, CCCCCNCC(N)=O [MILACEMIDE] has a documented Hepatotoxicity (time to onset) of 3 weeks - 4 weeks

Memo: COc1cc(Cc2cnc(N)nc2N)cc(OC)c1OC.Cc1cc(NS(=O)(=O)c2ccc(N)cc2)no1 , reported Hepatotoxicity (time to onset): 2 hours - 2 months

The measured Hepatotoxicity (time to onset) associated with CN1C(=O)CCS(=O)(=O)C1c1ccc(Cl)cc1 (stereo not given) reads 1 day - 4 weeks

----------
Hepatotoxicity (moderate): recorded values
- protocolSummary: Highest frequency of moderate liver toxicity observed during clinical trials, expressed as a percentage. [column '% BIOL' in source]
- details: human
The response must be a number in % with no trailing unit.

Recorded Hepatotoxicity (moderate), per entry:
1. CN(CCOc1ccc(CC2SC(=O)NC2=O)cc1)c1ccccn1 (stereo unspecified); 0.2
2. O=C(O)Cc1cn(-c2ccccc2)nc1-c1ccc(Cl)cc1; 0
3. O=C(c1ccccc1)c1ccc2n1CCC2C(=O)O (stereo unspecified); 32

So for CN1CC[C@@H]2Nc3ccccc3[C@@H]2C1.Cl.Cl , the logged Hepatotoxicity (moderate) turned out to be 0

GET /value?item= O=C(N[C@H](CO)[C@H](O)c1ccc([N+](=O)[O-])cc1)C(Cl)Cl &field=Hepatotoxicity (moderate) returns 46.2

Reported Hepatotoxicity (moderate) for CCCCC(C)(O)C/C=C/[C@H]1[C@H](O)CC(=O)[C@@H]1CCCCCCCO (stereo partly specified) was 10

Value of measured Hepatotoxicity (moderate) for the entry CC(C)Cc1ccc(CC(=O)O)cc1 : 40

Record Nc1nc(/C(=C/CC(=O)O)C(=O)N[C@@H]2C(=O)N3C(C(=O)O)=CCS[C@H]23)cs1 , field Hepatotoxicity (moderate): 14.3

Form field Hepatotoxicity (moderate), entry CCCCN(CCCC)CCC(O)c1cc2c(Cl)cc(Cl)cc2c2cc(C(F)(F)F)ccc12 (stereo unspecified) : 29

Quick note, Hepatotoxicity (moderate) for CC(=O)[C@@]1(O)CC[C@H]2[C@@H]3CCC4=CC(=O)CC[C@]4(C)[C@H]3CC[C@@]21C [HYDROXYPROGESTERONE] landed at 0

Kindly note the recorded Hepatotoxicity (moderate) for CC(C)(C)NCC(O)c1cc(O)cc(O)c1 (stereo unspecified) , which is 0

----------
- protocolSummary: Highest frequency of moderate liver toxicity observed during clinical trials, expressed as a percentage. [column '% BIOL' in source]
- details: human
Some molecules, each annotated with its measured Hepatotoxicity (moderate).
Record the value in %, omitting the unit from your answer.

The examples below pair each entry with its known result.
1) O=C1c2c(O)ccc(O)c2C(=O)c2c(NCCNCCO)ccc(NCCNCCO)c21; 80
2) CN(C)CCN(Cc1ccccc1)c1ccccn1; 0
3) CCC1NC(=O)c2cc(S(N)(=O)=O)c(Cl)cc2N1 (stereo unspecified); 0

So, NCCS ? Its Hepatotoxicity (moderate) was 0

# Hepatotoxicity (moderate) (molecule: CC(CN1c2ccccc2Sc2ccccc21)N(C)C (stereo unspecified) ) is 0

----------
Hepatotoxicity (choleostasis) by entry:
- details: human
# respond with the number and nothing more

Previously resolved entries follow.
1. CNC1(c2ccccc2Cl)CCCCC1=O (stereo not drawn); 0
2. CCN[C@@H](C)Cc1cccc(C(F)(F)F)c1; 0
3. CN(C)[C@@H]1C(O)=C(C(N)=O)C(=O)[C@@]2(O)C(O)=C3C(=O)c4c(O)cccc4[C@@](C)(O)[C@H]3[C@H](O)[C@@H]12; 2

// recorded Hepatotoxicity (choleostasis) for CCC1=C(C[C@H]2NCCc3cc(OC)c(OC)cc32)C[C@H]2c3cc(OC)c(OC)cc3CCN2C1 [DEHYDROEMETINE] : 0

Sure, the documented Hepatotoxicity (choleostasis) for CCOC(=O)[C@H](CCc1ccccc1)N[C@H]1CCCN2CCC[C@@H](C(=O)O)N2C1=O is 0

// field: Hepatotoxicity (choleostasis); key: CO/N=C(\C(=O)N[C@@H]1C(=O)N2C(C(=O)[O-])=C(C[n+]3ccn4ncccc43)CS[C@H]12)c1nsc(N)n1 ; value = 0

For O=C(O)CCCCCCNC1c2ccccc2CCc2ccccc21 the compound record lists Hepatotoxicity (choleostasis) as 18

get_value(item= C(=C\c1ccccc1)/CN1CCN(C(c2ccccc2)c2ccccc2)CC1 , readout=Hepatotoxicity (choleostasis)) returns 2
